Cited source: ChEMBL document CHEMBL1821565

Tested on: Hepatitis C virus
TEST_DESCRIPTION: Antiviral activity against HCV subtype 1b Con1 reduction in replicon RNA level using RT-PCR by cell based replicon assay
Format: functional, organism-based, Hepacivirus hominis
TEST_PARAMETERS: Hepatitis C virus, Con1; read-out: EC50

TEST_SMILES: O=C(O)c1c(-c2ccccc2)c2cc(Cl)ccc2n1Cc1cccc(Cl)c1
EC50: > 25 µM
--
TEST_SMILES: O=C(O)c1c(-c2ccccc2F)c2cc(Cl)ccc2n1C(=O)c1ccccc1
EC50: > 25 µM
--
TEST_SMILES: O=C(O)c1c(-c2cccnc2F)c2cc(Cl)ccc2n1Cc1ccc(F)cc1F
EC50: > 25 µM
--
TEST_SMILES: Cc1ccc(Cn2c(C(=O)O)c(-c3ccccc3F)c3cc(Cl)ccc32)cc1N
EC50: > 25 µM
--
TEST_SMILES: CC(=O)n1c(C(=O)O)c(-c2ccccc2F)c2cc(Cl)ccc21
EC50: > 25 µM
--
TEST_SMILES: O=C(O)c1c(-n2ccccc2=O)c2cc(Cl)ccc2n1Cc1ccccc1F
EC50: 19 µM
--
TEST_SMILES: O=C(O)c1c(-c2c[nH]c(=O)[nH]c2=O)c2cc(Cl)ccc2n1Cc1ccc(F)cc1F
EC50: 10 µM
--
TEST_SMILES: O=C(O)c1c(-c2ccc[nH]c2=O)c2cc(C(F)(F)F)ccc2n1Cc1ccc(F)cc1F
EC50: 4.8 µM
--
TEST_SMILES: O=C(O)c1[nH]c2ccc(Cl)cc2c1-c1ccccc1F
EC50: > 25 µM
--
TEST_SMILES: Cn1c(C(=O)O)c(-c2ccccc2F)c2cc(Cl)ccc21
EC50: > 25 µM

* * *

Measured pEC50, listed per entry for reference.
System: Hepatitis C virus
TEST_DESCRIPTION: Antiviral activity against HCV subtype 1b Con1 reduction in replicon RNA level using RT-PCR by cell based replicon assay
Assay type: functional, organism-based, Hepacivirus hominis
TEST_PARAMETERS: Hepatitis C virus, Con1; read-out: EC50
pEC50: −log10 of the molar value.

TEST_SMILES: O=C(O)c1c(-c2ccc(F)c(F)c2)c2cc(Cl)ccc2n1Cc1cccc(Cl)c1
pEC50: < 4.60
//
TEST_SMILES: O=C(O)c1c(-c2ccccc2F)c2cc(Cl)ccc2n1Cc1cccc(OC(F)(F)F)c1
pEC50: < 4.60
//
TEST_SMILES: O=C(O)c1c(-c2ccc(F)cc2F)c2cc(Cl)ccc2n1Cc1cccc(Cl)c1
pEC50: < 4.60
//
TEST_SMILES: Nc1cc(Cn2c(C(=O)O)c(-c3c[nH]c(=O)[nH]c3=O)c3cc(Cl)ccc32)ccn1
pEC50: 5.70
//
TEST_SMILES: O=C(O)c1c(-c2ccccc2F)c2cc(Cl)ccc2n1Cc1cccc(NCc2ccccc2)c1
pEC50: < 4.60
//
TEST_SMILES: O=C(O)c1c(-n2c(=O)[nH]c3cscc3c2=O)c2cc(C(F)(F)F)ccc2n1Cc1ccc(F)cc1F
pEC50: 4.92
//
TEST_SMILES: O=C(O)c1c(-n2c(=O)[nH]c3nccnc3c2=O)c2cc(C(F)(F)F)ccc2n1Cc1cc(F)ccc1F
pEC50: < 5.00
//
TEST_SMILES: O=C(O)c1c(-c2ccccc2F)c2cc(Cl)ccc2n1Cc1cccnc1
pEC50: < 4.60
//
TEST_SMILES: COc1ccc2c(c1)c(-c1ccc[nH]c1=O)c(C(=O)O)n2Cc1ccc(F)cc1F
pEC50: 4.96

* * *

Tested on: Hepatitis C virus
TEST_DESCRIPTION: Antiviral activity against HCV subtype 1b Con1 reduction in replicon RNA level using RT-PCR by cell based replicon assay
Assay type: functional, organism-based, Hepacivirus hominis
TEST_PARAMETERS: Hepatitis C virus, Con1; read-out: EC50

TEST_SMILES: Nc1ccccc1Cn1c(C(=O)O)c(-c2ccccc2F)c2cc(Cl)ccc21
EC50: > 25 µM

TEST_SMILES: CCOc1ccc2c(c1)c(-c1ccc[nH]c1=O)c(C(=O)O)n2Cc1ccc(F)cc1F
EC50: 20 µM

TEST_SMILES: Nc1cc(Cn2c(C(=O)O)c(-c3ccc[nH]c3=O)c3cc(Cl)ccc32)ccn1
EC50: 4.8 µM

TEST_SMILES: Nc1cc(Cn2c(C(=O)O)c(-n3c(=O)[nH]c4cscc4c3=O)c3cc(C(F)(F)F)ccc32)ccn1
EC50: 1.4 µM

TEST_SMILES: O=C(O)c1c(-c2ccc3c(c2)OCO3)c2cc(Cl)ccc2n1Cc1cccc(Cl)c1
EC50: > 25 µM

TEST_SMILES: Nc1cc(Cn2c(C(=O)O)c(-c3ccc[nH]c3=O)c3cc(C(F)(F)F)ccc32)ccn1
EC50: 0.3 µM

TEST_SMILES: O=C(O)c1c(-c2ccc(F)cc2)c2cc(Cl)ccc2n1Cc1cccc(Cl)c1
EC50: > 25 µM

TEST_SMILES: O=C(O)c1c(-c2ccccc2F)c2cc(Cl)ccc2n1Cc1ccccc1
EC50: > 100 µM

TEST_SMILES: O=C(O)c1c(-c2ccccc2F)c2cc(Cl)ccc2n1Cc1cc(F)ccc1F
EC50: > 25 µM

TEST_SMILES: O=C(O)c1cc2cc(Cl)ccc2n1Cc1ccccc1F
EC50: > 25 µM

* * *

Measured EC50, listed per entry for reference.
Test system: Hepatitis C virus
TEST_DESCRIPTION: Antiviral activity against HCV subtype 1b Con1 reduction in replicon RNA level using RT-PCR by cell based replicon assay
Format: functional, organism-based, Hepacivirus hominis
TEST_PARAMETERS: Hepatitis C virus, Con1; read-out: EC50
QUANTITY_KIND: EC50

TEST_SMILES: O=C(O)c1c(-c2ccc[nH]c2=O)c2cc(C3CC3)ccc2n1Cc1ccc(F)cc1F
TEST_SYSTEM: Hepatitis C virus
QUANTITY_KIND: EC50
RESULT: > 50 µM
--
TEST_SMILES: O=C(O)c1c(-c2ccc[nH]c2=O)c2cc(Cl)ccc2n1Cc1ccc(F)cc1F
TEST_SYSTEM: Hepatitis C virus
QUANTITY_KIND: EC50
RESULT: 10 µM
--
TEST_SMILES: Cc1cccc(Cn2c(C(=O)O)c(-c3ccccc3F)c3cc(Cl)ccc32)c1
TEST_SYSTEM: Hepatitis C virus
QUANTITY_KIND: EC50
RESULT: > 25 µM
--
TEST_SMILES: N#Cc1cccc(-c2c(C(=O)O)n(Cc3cccc(Cl)c3)c3ccc(Cl)cc23)c1
TEST_SYSTEM: Hepatitis C virus
QUANTITY_KIND: EC50
RESULT: > 25 µM
--
TEST_SMILES: Nc1cccc(Cn2c(C(=O)O)c(-c3ccccc3F)c3cc(Cl)ccc32)c1
TEST_SYSTEM: Hepatitis C virus
QUANTITY_KIND: EC50
RESULT: > 25 µM

* * *

Measured pEC50, listed per entry for reference.
Test system: Hepatitis C virus
TEST_DESCRIPTION: Antiviral activity against HCV subtype 1b Con1 reduction in replicon RNA level using RT-PCR by cell based replicon assay
Type: functional, organism-based, Hepacivirus hominis
TEST_PARAMETERS: Hepatitis C virus, Con1; read-out: EC50
pEC50: −log10 of the molar value.

TEST_SMILES: O=C(O)c1c(-c2ccc[nH]c2=O)c2cc(Br)ccc2n1Cc1ccc(F)cc1F
TEST_SYSTEM: Hepatitis C virus
pEC50: 5.12
//
TEST_SMILES: O=C(O)c1c(-c2ccccc2O)c2cc(Cl)ccc2n1Cc1cc(F)ccc1F
TEST_SYSTEM: Hepatitis C virus
pEC50: < 4.60
//
TEST_SMILES: CC(=O)Nc1cccc(Cn2c(C(=O)O)c(-c3ccccc3F)c3cc(Cl)ccc32)c1
TEST_SYSTEM: Hepatitis C virus
pEC50: < 4.60
//
TEST_SMILES: COc1ccccc1-c1c(C(=O)O)n(Cc2ccccc2F)c2ccc(Cl)cc12
TEST_SYSTEM: Hepatitis C virus
pEC50: < 4.60
//
TEST_SMILES: NC(=O)Nc1c(C(=O)O)n(Cc2cc(F)ccc2F)c2ccc(C(F)(F)F)cc12
TEST_SYSTEM: Hepatitis C virus
pEC50: < 5.00
